- Test system: receptor labeled by the radioiodinated analogue of 1 (4, [125I]-YLFQPQRF-NH2); neuropeptide FF receptor
- Protocol summary: Competitive radioligand binding against 4 ([125I]Y8F-amide)
- Details: mixture-based positional scanning; difference from averaged radioligand displacement of whole library (0); about 80 a.u. = 10-fold change in Ki
- Source text: Additionally, three-dimensional (3-D) molecular models of the known smaller-size neuropeptide FF antagonists 3 and 3a were constructed and their low-energy conformations were obtained in the AMBER force-field [Weiner, et al., J. Comput. Chem. 1986, 7, […].] by molecular dynamics calculations involving simulated annealing. A semi-empirical quantum chemical method with the PM3 parameterization [Stewart, J. Comput. Chem. 1989, 10, 209-220.] was used for the final geometry optimization. […]
Peptide text beside a SMILES is read from it. * marks the point of attachment. Dansyl = CN(C)c1cccc2c(S(=O)(=O)*)cccc12
Readout label: Relative Binding Index (RBI) (a.u.)

{"Molecule": "CC(C)[C@H](NC(=O)[C@H](CC(N)=O)NS(=O)(=O)c1cccc2c(N(C)C)cccc12)C(=O)N[C@@H](CCCNC(=N)N)C(N)=O [Dansyl-NVR-amide] (Dansyl-Asn-Val-Arg-NH2)", "Relative Binding Index (RBI) [a.u.]": 8}

(I) C[C@H](NS(=O)(=O)c1cccc2c(N(C)C)cccc12)C(=O)N[C@@H](Cc1c[nH]cn1)C(=O)N[C@@H](CCCNC(=N)N)C(N)=O [Dansyl-AHR-amide] (Dansyl-Ala-His-Arg-NH2)
(II) CC[C@H](C)[C@H](NS(=O)(=O)c1cccc2c(N(C)C)cccc12)C(=O)N[C@@H](CC(=O)O)C(=O)N[C@@H](CCCNC(=N)N)C(N)=O [Dansyl-IDR-amide] (Dansyl-Ile-Asp-Arg-NH2)
Prompt line: Response body: label of entry with the larger Relative Binding Index (RBI); valid values I , II . Write down the label attached to your selection.
Response line: I

* * *

- Tested on: receptor labeled by the radioiodinated analogue of 1 (4, [125I]-YLFQPQRF-NH2); neuropeptide FF receptor
- Protocol summary: Competitive radioligand binding against 4 ([125I]Y8F-amide)
- Details: mixture-based positional scanning; difference from averaged radioligand displacement of whole library (0); about 80 a.u. = 10-fold change in Ki
Peptide text beside a SMILES is read from it. * marks the point of attachment. Dansyl = CN(C)c1cccc2c(S(=O)(=O)*)cccc12
Readout label: Relative Binding Index (RBI) (a.u.)

See these solved cases before continuing.
{"Compound": "C[C@H](NC(=O)[C@H](CC(N)=O)NS(=O)(=O)c1cccc2c(N(C)C)cccc12)C(=O)N[C@@H](CCCNC(=N)N)C(N)=O [Dansyl-NAR-amide] (Dansyl-Asn-Ala-Arg-NH2)", "Unit text": "a.u.", "Relative Binding Index (RBI)": "−36"}
{"Compound": "CC[C@H](C)[C@H](NS(=O)(=O)c1cccc2c(N(C)C)cccc12)C(=O)N[C@@H](C)C(=O)N[C@@H](CCCNC(=N)N)C(N)=O [Dansyl-IAR-amide] (Dansyl-Ile-Ala-Arg-NH2)", "Unit text": "a.u.", "Relative Binding Index (RBI)": "−60"}
{"Compound": "CN(C)c1cccc2c(S(=O)(=O)N[C@@H](CCCNC(=N)N)C(=O)NCC(=O)N[C@@H](CCCNC(=N)N)C(N)=O)cccc12 [Dansyl-RGR-amide] (Dansyl-Arg-Gly-Arg-NH2)", "Unit text": "a.u.", "Relative Binding Index (RBI)": 12}

(I) CN(C)c1cccc2c(S(=O)(=O)N[C@@H](Cc3ccccc3)C(=O)N[C@@H](Cc3cnc[nH]3)C(=O)N[C@@H](CCCNC(=N)N)C(N)=O)cccc12 [Dansyl-FHR-amide] (Dansyl-Phe-His-Arg-NH2)
(II) CN(C)c1cccc2c(S(=O)(=O)N[C@@H](CCC(N)=O)C(=O)N[C@@H](CCCNC(=N)N)C(=O)N[C@@H](CCCNC(=N)N)C(N)=O)cccc12 [Dansyl-QRR-amide] (Dansyl-Gln-Arg-Arg-NH2)
Prompt line: Smaller Relative Binding Index (RBI) value? Options are I and II Write down the label attached to your selection.
Response line: I

(P) CN(C)c1cccc2c(S(=O)(=O)N[C@@H](CC(N)=O)C(=O)N[C@@H](Cc3ccccc3)C(=O)N[C@@H](CCCNC(=N)N)C(N)=O)cccc12 [Dansyl-NFR-amide] (Dansyl-Asn-Phe-Arg-NH2)
(Q) CSCC[C@H](NS(=O)(=O)c1cccc2c(N(C)C)cccc12)C(=O)N[C@@H](Cc1c[nH]cn1)C(=O)N[C@@H](CCCNC(=N)N)C(N)=O [Dansyl-MHR-amide] (Dansyl-Met-His-Arg-NH2)
Prompt line: Response body: label of entry with the larger Relative Binding Index (RBI); valid values P , Q . Write down the label attached to your selection.
Response line: P

(a) CC[C@H](C)[C@H](NS(=O)(=O)c1cccc2c(N(C)C)cccc12)C(=O)N[C@@H](Cc1ccccc1)C(=O)N[C@@H](CCCNC(=N)N)C(N)=O [Dansyl-IFR-amide] (Dansyl-Ile-Phe-Arg-NH2)
(b) CSCC[C@H](NS(=O)(=O)c1cccc2c(N(C)C)cccc12)C(=O)N[C@@H](CCC(N)=O)C(=O)N[C@@H](CCCNC(=N)N)C(N)=O [Dansyl-MQR-amide] (Dansyl-Met-Gln-Arg-NH2)
Prompt line: Smaller Relative Binding Index (RBI) value? Options are a and b Write down the label attached to your selection.
Response line: b

* * *

- System: receptor labeled by the radioiodinated analogue of 1 (4, [125I]-YLFQPQRF-NH2); neuropeptide FF receptor
- Protocol summary: Competitive radioligand binding against 4 ([125I]Y8F-amide)
- Details: mixture-based positional scanning; difference from averaged radioligand displacement of whole library (0); about 80 a.u. = 10-fold change in Ki
Peptide text beside a SMILES is read from it. * marks the point of attachment. Dansyl = CN(C)c1cccc2c(S(=O)(=O)*)cccc12
Readout label: Relative Binding Index (RBI) (a.u.)

{"Molecule": "CC(C)C[C@H](NS(=O)(=O)c1cccc2c(N(C)C)cccc12)C(=O)N[C@@H](CCCCN)C(=O)N[C@@H](CCCNC(=N)N)C(N)=O [Dansyl-LKR-amide] (Dansyl-Leu-Lys-Arg-NH2)", "Unit text": "a.u.", "Relative Binding Index (RBI)": "−34"}

(P) CN(C)c1cccc2c(S(=O)(=O)N[C@@H](CC(N)=O)C(=O)N[C@@H](CO)C(=O)N[C@@H](CCCNC(=N)N)C(N)=O)cccc12 [Dansyl-NSR-amide] (Dansyl-Asn-Ser-Arg-NH2)
(Q) CN(C)c1cccc2c(S(=O)(=O)N[C@@H](CCC(=O)O)C(=O)N[C@@H](Cc3ccccc3)C(=O)N[C@@H](CCCNC(=N)N)C(N)=O)cccc12 [Dansyl-EFR-amide] (Dansyl-Glu-Phe-Arg-NH2)
Prompt line: Smaller Relative Binding Index (RBI) value? Options are P and Q Write down the label attached to your selection.
Response line: Q

* * *

- Test system: receptor labeled by the radioiodinated analogue of 1 (4, [125I]-YLFQPQRF-NH2); neuropeptide FF receptor
- Protocol summary: Competitive radioligand binding against 4 ([125I]Y8F-amide)
- Details: mixture-based positional scanning; difference from averaged radioligand displacement of whole library (0); about 80 a.u. = 10-fold change in Ki
Peptide text beside a SMILES is read from it. * marks the point of attachment. Dansyl = CN(C)c1cccc2c(S(=O)(=O)*)cccc12
Readout label: Relative Binding Index (RBI) (a.u.)

See these solved cases before continuing.
{"Molecule": "C[C@H](NS(=O)(=O)c1cccc2c(N(C)C)cccc12)C(=O)NCC(=O)N[C@@H](CCCNC(=N)N)C(N)=O [Dansyl-AGR-amide] (Dansyl-Ala-Gly-Arg-NH2)", "Data value": 18}
{"Molecule": "CC(C)C[C@H](NC(=O)[C@H](Cc1c[nH]c2ccccc12)NS(=O)(=O)c1cccc2c(N(C)C)cccc12)C(=O)N[C@@H](CCCNC(=N)N)C(N)=O [Dansyl-WLR-amide]", "Data value": 0}

(a) CSCC[C@H](NC(=O)[C@H](CCC(N)=O)NS(=O)(=O)c1cccc2c(N(C)C)cccc12)C(=O)N[C@@H](CCCNC(=N)N)C(N)=O [Dansyl-QMR-amide] (Dansyl-Gln-Met-Arg-NH2)
(b) C[C@@H](O)[C@H](NC(=O)[C@H](Cc1ccc(O)cc1)NS(=O)(=O)c1cccc2c(N(C)C)cccc12)C(=O)N[C@@H](CCCNC(=N)N)C(N)=O [Dansyl-YTR-amide] (Dansyl-Tyr-Thr-Arg-NH2)
Prompt line: Smaller Relative Binding Index (RBI) value? Options are a and b Write down the label attached to your selection.
Response line: b
(b: 13 a.u., a: 21 a.u.)

* * *

- System: receptor labeled by the radioiodinated analogue of 1 (4, [125I]-YLFQPQRF-NH2); neuropeptide FF receptor
- Protocol summary: Competitive radioligand binding against 4 ([125I]Y8F-amide)
- Details: mixture-based positional scanning; difference from averaged radioligand displacement of whole library (0); about 80 a.u. = 10-fold change in Ki
Peptide text beside a SMILES is read from it. * marks the point of attachment. Dansyl = CN(C)c1cccc2c(S(=O)(=O)*)cccc12
Readout label: Relative Binding Index (RBI) (a.u.)

(A) CC[C@H](C)[C@H](NC(=O)[C@H](C)NS(=O)(=O)c1cccc2c(N(C)C)cccc12)C(=O)N[C@@H](CCCNC(=N)N)C(N)=O [Dansyl-AIR-amide] (Dansyl-Ala-Ile-Arg-NH2)
(B) C[C@@H](O)[C@H](NS(=O)(=O)c1cccc2c(N(C)C)cccc12)C(=O)N[C@@H](Cc1ccc(O)cc1)C(=O)N[C@@H](CCCNC(=N)N)C(N)=O [Dansyl-TYR-amide] (Dansyl-Thr-Tyr-Arg-NH2)
(C) CSCC[C@H](NC(=O)[C@H](CCCNC(=N)N)NS(=O)(=O)c1cccc2c(N(C)C)cccc12)C(=O)N[C@@H](CCCNC(=N)N)C(N)=O [Dansyl-RMR-amide] (Dansyl-Arg-Met-Arg-NH2)
(D) CC(C)C[C@H](NS(=O)(=O)c1cccc2c(N(C)C)cccc12)C(=O)N[C@@H](CCC(=O)O)C(=O)N[C@@H](CCCNC(=N)N)C(N)=O [Dansyl-LER-amide] (Dansyl-Leu-Glu-Arg-NH2)
(E) CN(C)c1cccc2c(S(=O)(=O)N[C@@H](CC(=O)O)C(=O)N[C@@H](Cc3ccccc3)C(=O)N[C@@H](CCCNC(=N)N)C(N)=O)cccc12 [Dansyl-DFR-amide] (Dansyl-Asp-Phe-Arg-NH2)
Prompt line: Rank the listed compounds according to Relative Binding Index (RBI), from the largest value downward. List labels; respect the requested ordering.
Response line: A, C, E, B, D

(1) CC(C)[C@H](NC(=O)CNS(=O)(=O)c1cccc2c(N(C)C)cccc12)C(=O)N[C@@H](CCCNC(=N)N)C(N)=O [Dansyl-GVR-amide] (Dansyl-Gly-Val-Arg-NH2)
(2) C[C@@H](O)[C@H](NS(=O)(=O)c1cccc2c(N(C)C)cccc12)C(=O)N[C@@H](Cc1c[nH]cn1)C(=O)N[C@@H](CCCNC(=N)N)C(N)=O [Dansyl-THR-amide] (Dansyl-Thr-His-Arg-NH2)
(3) CC(C)C[C@H](NS(=O)(=O)c1cccc2c(N(C)C)cccc12)C(=O)N[C@@H](CCCNC(=N)N)C(=O)N[C@@H](CCCNC(=N)N)C(N)=O [Dansyl-LRR-amide] (Dansyl-Leu-Arg-Arg-NH2)
Prompt line: Please order the records by their reported Relative Binding Index (RBI), lowest number first. List labels; respect the requested ordering.
Response line: 3, 2, 1
(3: −33 a.u., 2: −14 a.u., 1: 20 a.u.)

(P) CSCC[C@H](NC(=O)CNS(=O)(=O)c1cccc2c(N(C)C)cccc12)C(=O)N[C@@H](CCCNC(=N)N)C(N)=O [Dansyl-GMR-amide] (Dansyl-Gly-Met-Arg-NH2)
(Q) CN(C)c1cccc2c(S(=O)(=O)N[C@@H](CCCNC(=N)N)C(=O)N[C@@H](CCCNC(=N)N)C(=O)N[C@@H](CCCNC(=N)N)C(N)=O)cccc12 [Dansyl-RRR-amide] (Dansyl-Arg-Arg-Arg-NH2)
(R) CC(C)[C@H](NC(=O)[C@H](CCC(=O)O)NS(=O)(=O)c1cccc2c(N(C)C)cccc12)C(=O)N[C@@H](CCCNC(=N)N)C(N)=O [Dansyl-EVR-amide] (Dansyl-Glu-Val-Arg-NH2)
(S) CC(C)C[C@H](NS(=O)(=O)c1cccc2c(N(C)C)cccc12)C(=O)NCC(=O)N[C@@H](CCCNC(=N)N)C(N)=O [Dansyl-LGR-amide] (Dansyl-Leu-Gly-Arg-NH2)
Prompt line: List these items ordered by Relative Binding Index (RBI), big to small. List labels; respect the requested ordering.
Response line: P, R, Q, S
(P: 25 a.u., R: 12 a.u., Q: 5 a.u., S: −27 a.u.)
